- Test system: B6C3F1 mice, Lewis lung carcinoma iv, survival T/C
- measurement_description: NCI In Vivo Anticancer Drug Screen. Data for tumor model Lewis Lung Carcinoma (intravenous) in B6C3F1 mice
- measurement_setup: endpoint: median survival time; dose: 25.0 mg/kg/injection; schedule: Q01DX009 (ip); vehicle: suspension in saline; higher = longer survival
Toxic doses and inconclusive results are not listed.
measured_property: T/C

{"columns": ["compound", "measured_property", "result"],
 "data": [
  ["Cc1cc2nc3c(=O)[nH]c(=O)nc-3n(CC(O)C(O)C(O)C(O)CO)c2cc1C (configuration not stated)", "T/C", "95 % of control"],
  ["Cc1cn(C2CC(F)C(CO)O2)c(=O)[nH]c1=O (configuration not stated)", "T/C", "103 % of control"],
  ["O=c1[nH]cnc2[nH]ncc12", "T/C", "105 % of control"],
  ["NC(=O)CCC(N)C(=O)O (configuration not stated)", "T/C", "109 % of control"],
  ["Nc1nc(=S)c2ncn(C3CC(O)C(CO)O3)c2[nH]1 (configuration not stated)", "T/C", "100 % of control"],
  ["O=C1OC(=O)[C@H]2[C@@H]1[C@H]1C=C[C@@H]2OC1=O", "T/C", "119 % of control"],
  ["CCOC(=O)C1=C(C#N)C2(CCC(OCc3ccccc3)CC2)C(=O)O1 (configuration not stated)", "T/C", "94 % of control"],
  ["CCC(C(=O)O)C(=O)O.[NH-]CC1CCCC[N-]1.[Pt+2]", "T/C", "104 % of control"],
  ["COc1cc2c[n+](C)c3c(c2cc1OC)Cc1cc2c(cc1-3)OCO2", "T/C", "114 % of control"],
  ["CCCCCCCCCCCCCCCCCC(=O)Nc1ccn(C2OC(CO)C(O)C2O)c(=O)n1 (configuration not stated)", "T/C", "119 % of control"]
]}

Please look at the items below and tell me T/C for each one, in order.
1. CN(CCN(C)C(=O)CCOS(C)(=O)=O)C(=O)CCOS(C)(=O)=O
2. COc1ccc(/C=C/C(=O)c2cc(C(=O)O)c(OC)cc2OC)cc1OC

Response line:
97 % of control
104 % of control

Value source: PubChem BioAssay AID276
